system: HL-60(TB) leukemia; experiment: NCI tumour cell line growth inhibition, 48 h
Catalogue of molecules with associated TGI

molecule: Oc1ccccc1C=Nc1ccccc1N=Cc1ccccc1O
study system: HL-60(TB) leukemia
unit abbrev: µM
operator: =
TGI: 81.5
//
molecule: CSc1nc(=O)c(C#N)c(-c2ccccc2)n1C1OC(COC(C)=O)C(OC(C)=O)C(OC(C)=O)C1OC(C)=O (stereo unspecified)
study system: HL-60(TB) leukemia
unit abbrev: µM
operator: >
TGI: 100
//
molecule: CCOC(=O)C1=CN(C(=O)c2ccccc2)CCC1Cc1ccccc1 (stereo unspecified)
study system: HL-60(TB) leukemia
unit abbrev: µM
operator: =
TGI: 32.2
//
molecule: COC(=O)[C@]12CC[C@@H](C)[C@H](C)[C@@H]1C1=CC[C@@H]3[C@@]4(C)C=C(O)C(=O)C(C)=C4CC[C@@]3(C)[C@]1(C)CC2
study system: HL-60(TB) leukemia
unit abbrev: µM
operator: =
TGI: 35.7
//
molecule: C=CCNC(=S)OCCCCCCCCCC
study system: HL-60(TB) leukemia
unit abbrev: µM
operator: =
TGI: 53.5
//
molecule: Cc1ccc([Se][Se]c2ccc(C)cc2)cc1
study system: HL-60(TB) leukemia
unit abbrev: µM
operator: =
TGI: 19.2
//
molecule: O=C1c2ccccc2C2(O)Oc3cccc(O)c3C12O (stereo unspecified)
study system: HL-60(TB) leukemia
unit abbrev: µM
operator: >
TGI: 100
//
molecule: Cc1oc2c(C)c3oc(=O)cc(C)c3cc2c1CN
study system: HL-60(TB) leukemia
unit abbrev: µM
operator: >
TGI: 100
//
molecule: CCOC(=O)/C=C1/Nc2cc(F)c(F)cc2NC1=O
study system: HL-60(TB) leukemia
unit abbrev: µM
operator: >
TGI: 100
//
molecule: COc1cccc(C2C(C#N)=C(N)Oc3cc(OC)ccc32)c1 (stereo unspecified)
study system: HL-60(TB) leukemia
unit abbrev: µM
operator: =
TGI: 0.077
//
molecule: O=C(O)C(CO)NC(=O)C1C(C(=O)O)C(c2ccccc2[N+](=O)[O-])C=C(c2ccco2)N1c1ccncc1 (stereo unspecified)
study system: HL-60(TB) leukemia
unit abbrev: µM
operator: >
TGI: 100
//
molecule: OC(C(=Nc1ccccc1)c1ccccc1)c1ccccc1 (stereo unspecified)
study system: HL-60(TB) leukemia
unit abbrev: µM
operator: =
TGI: 56.1
//
molecule: O=C(Nc1ccccc1F)c1ccc(NC2=C(Cl)C(=O)N(Cc3ccccc3)C2=O)cc1
study system: HL-60(TB) leukemia
unit abbrev: µM
operator: =
TGI: 3.36
//
molecule: O=C(Nc1cccc(C(F)(F)F)c1)c1cc(-c2ccccc2)nc(=S)[nH]1
study system: HL-60(TB) leukemia
unit abbrev: µM
operator: >
TGI: 100
//
molecule: C/C(=N\NC(=O)N/N=C(\C)c1ccccn1)c1ccccn1
study system: HL-60(TB) leukemia
unit abbrev: µM
operator: >
TGI: 100
//
molecule: COc1cc([C@@H]2c3cc4c(cc3[C@@H](Nc3ccc(NC(=O)c5cc(NC(=O)c6cc([N+](=O)[O-])cn6C)cn5C)cc3)[C@H]3COC(=O)[C@H]23)OCO4)cc(OC)c1O
study system: HL-60(TB) leukemia
unit abbrev: µM
operator: =
TGI: 11.3
//
molecule: COC1CCC(n2c([C@@H]3CCCC(=O)N3c3ccc(F)c(F)c3)nc3cc(-c4c(C)noc4C)ccc32)CC1 (stereo partly specified)
study system: HL-60(TB) leukemia
unit abbrev: µM
operator: =
TGI: 36.4
//
molecule: S=C1CSc2c(cnc3ccccc23)N1
study system: HL-60(TB) leukemia
unit abbrev: µM
operator: >
TGI: 100
//
molecule: O=[N+]([O-])c1ccc(Cl)cc1N/N=C/c1cccs1
study system: HL-60(TB) leukemia
unit abbrev: µM
operator: >
TGI: 100
//
molecule: CC(=O)OC1C(O)C(C)OC(OC(=O)C2CCC3C(C2)OC2(CC(OC(=O)/C=C/c4ccccc4)C(C)CO2)C32CO2)C1OC1OC(C)C(O)C(O)C1O (stereo unspecified)
study system: HL-60(TB) leukemia
unit abbrev: µM
operator: =
TGI: 0.579
//
molecule: COC1=CCC2=C(CCN(C(=O)C3CCC3)C2Cc2ccc(OC)c(O)c2)C1 (stereo unspecified)
study system: HL-60(TB) leukemia
unit abbrev: µM
operator: =
TGI: 51.5
